system: Escherichia coli clinical strains; assay type: cell-based; conditions: Escherichia coli clinical strain 2; microdilution, Muller Hinton broth-cation adjusted, 0.02% BSA, 0.2% acetic acid
Square brackets hold non-standard residues; d marks the D form. Peptide text beside a SMILES is read from it.

compound	Minimum inhibitory concentration
CC(C)C[C@@H](NC(=O)[C@@H](Cc1c[nH]c2ccccc12)NC(=O)[C@@H](Cc1ccccc1)NC(=O)[C@@H](Cc1c[nH]c2ccccc12)NC(=O)[C@@H](CCCCN)NC(=O)[C@@H](CCCNC(=N)N)NC(=O)[C@H](N)Cc1c[nH]c2ccccc12)C(=O)N[C@H](Cc1ccccc1)C(=O)N[C@H](CCCCN)C(=O)N[C@H](CCCCN)C(=O)N[C@H](CCCNC(=N)N)C(=O)O [Chain309D] (H-[dW][dR][dK][dW][dF][dW][dL][dF][dK][dK][dR]-OH)	32
CC(C)C[C@@H](NC(=O)[C@H](N)CCCNC(=N)N)C(=O)N[C@H](CCCCN)C(=O)N[C@H](CCCNC(=N)N)C(=O)N[C@H](Cc1c[nH]c2ccccc12)C(=O)N[C@H](CCCNC(=N)N)C(=O)N[C@H](CC(C)C)C(=O)N[C@H](Cc1ccccc1)C(=O)N[C@H](CCCNC(=N)N)C(=O)N[C@H](CCCCN)C(=O)N[C@H](CCCNC(=N)N)C(=O)O [Chain306D] (H-[dR][dL][dK][dR][dW][dR][dL][dF][dR][dK][dR]-OH)	2
CC(C)C[C@@H](NC(=O)[C@H](N)CCCNC(=N)N)C(=O)N[C@H](CCCCN)C(=O)N[C@H](Cc1c[nH]c2ccccc12)C(=O)N[C@H](Cc1ccccc1)C(=O)N[C@H](CC(C)C)C(=O)N[C@H](CC(C)C)C(=O)N[C@H](Cc1ccccc1)C(=O)N[C@H](CCCNC(=N)N)C(=O)N[C@H](CCCCN)C(=O)N[C@H](CCCNC(=N)N)C(=O)O [Chain308D] (H-[dR][dL][dK][dW][dF][dL][dL][dF][dR][dK][dR]-OH)	0.5
CC(C)C[C@@H](NC(=O)[C@@H](CCCCN)NC(=O)[C@@H](CCCCN)NC(=O)[C@@H](Cc1ccccc1)NC(=O)[C@@H](CC(C)C)NC(=O)[C@@H](Cc1c[nH]c2ccccc12)NC(=O)[C@@H](CCCNC(=N)N)NC(=O)[C@@H](Cc1c[nH]c2ccccc12)NC(=O)[C@@H](CCCCN)NC(=O)[C@@H](CCCNC(=N)N)NC(=O)[C@H](N)CCCCN)C(=O)O [Chain310D] (H-[dK][dR][dK][dW][dR][dW][dL][dF][dK][dK][dL]-OH)	32
CC[C@@H](C)[C@@H](NC(=O)[C@@H](CC(C)C)NC(=O)[C@@H](CCCNC(=N)N)NC(=O)[C@H](N)CCCNC(=N)N)C(=O)N[C@H](Cc1c[nH]c2ccccc12)C(=O)N[C@H](CCCNC(=N)N)C(=O)N[C@H](CCCNC(=N)N)C(=O)N[C@H](Cc1ccccc1)C(=O)N[C@H](CCCCN)C(=O)N[C@H](Cc1c[nH]c2ccccc12)C(=O)N[C@H](CC(C)C)C(=O)N[C@H](CCCNC(=N)N)C(=O)O [Chain204D] (H-[dR][dR][dL][dI][dW][dR][dR][dF][dK][dW][dL][dR]-OH)	1
CC[C@@H](C)[C@@H](NC(=O)[C@@H](Cc1c[nH]c2ccccc12)NC(=O)[C@H](N)CCCCN)C(=O)N[C@@H](C(=O)N[C@H](Cc1c[nH]c2ccccc12)C(=O)N[C@H](CCCNC(=N)N)C(=O)N[C@H](Cc1c[nH]c2ccccc12)C(=O)N[C@H](CCCNC(=N)N)C(=O)N[C@H](Cc1ccccc1)C(=O)N[C@H](CCCCN)C(=O)N[C@H](CCCNC(=N)N)C(=O)O)C(C)C [Chain201D] (H-[dK][dW][dI][dV][dW][dR][dW][dR][dF][dK][dR]-OH)	1
CC(C)C[C@@H](NC(=O)[C@H](N)CCCCN)C(=O)N[C@H](CCCCN)C(=O)N[C@H](Cc1c[nH]c2ccccc12)C(=O)N[C@H](Cc1ccccc1)C(=O)N[C@H](Cc1c[nH]c2ccccc12)C(=O)N[C@H](CC(C)C)C(=O)N[C@H](Cc1ccccc1)C(=O)N[C@H](CCCCN)C(=O)N[C@H](CCCCN)C(=O)N[C@H](CCCNC(=N)N)C(=O)O [Chain311D] (H-[dK][dL][dK][dW][dF][dW][dL][dF][dK][dK][dR]-OH)	2
CC(C)C[C@@H](NC(=O)[C@H](N)CCCNC(=N)N)C(=O)N[C@H](CCCCN)C(=O)N[C@H](Cc1c[nH]c2ccccc12)C(=O)N[C@H](Cc1ccccc1)C(=O)N[C@H](Cc1c[nH]c2ccccc12)C(=O)N[C@H](CC(C)C)C(=O)N[C@H](Cc1ccccc1)C(=O)N[C@H](CCCNC(=N)N)C(=O)N[C@H](CCCCN)C(=O)N[C@H](CCCNC(=N)N)C(=O)O [Chain307D] (H-[dR][dL][dK][dW][dF][dW][dL][dF][dR][dK][dR]-OH)	4
CC[C@@H](C)[C@@H](N)C(=O)N[C@H](Cc1c[nH]c2ccccc12)C(=O)N[C@H](CCCCN)C(=O)N[C@H](CCCNC(=N)N)C(=O)N[C@H](Cc1ccccc1)C(=O)N[C@H](CCCNC(=N)N)C(=O)N[C@H](CC(C)C)C(=O)N[C@H](Cc1ccccc1)C(=O)N[C@H](CCCCN)C(=O)N[C@H](CCCCN)C(=O)N[C@H](Cc1c[nH]c2ccccc12)C(=O)O [Chain304D] (H-[dI][dW][dK][dR][dF][dR][dL][dF][dK][dK][dW]-OH)	16

###

Reported Minimum inhibitory concentration values for a set of molecules
test system: Enterobacter cloacae clinical strains; format: cell-based; parameters: unit: μg/ml; details: Enterobacter cloacae clinical strain 2; microdilution, Muller Hinton broth-cation adjusted, 0.02% BSA, 0.2% acetic acid
Square brackets hold non-standard residues; d marks the D form. Peptide text beside a SMILES is read from it.

molecule	Minimum inhibitory concentration
CC(C)C[C@@H](NC(=O)[C@H](N)CCCNC(=N)N)C(=O)N[C@H](CCCCN)C(=O)N[C@H](CCCNC(=N)N)C(=O)N[C@H](Cc1c[nH]c2ccccc12)C(=O)N[C@H](CCCNC(=N)N)C(=O)N[C@H](CC(C)C)C(=O)N[C@H](Cc1ccccc1)C(=O)N[C@H](CCCNC(=N)N)C(=O)N[C@H](CCCCN)C(=O)N[C@H](CCCNC(=N)N)C(=O)O [Chain306D] (H-[dR][dL][dK][dR][dW][dR][dL][dF][dR][dK][dR]-OH)	64
CC(C)C[C@@H](NC(=O)[C@H](N)CCCNC(=N)N)C(=O)N[C@H](CCCCN)C(=O)N[C@H](Cc1c[nH]c2ccccc12)C(=O)N[C@H](Cc1ccccc1)C(=O)N[C@H](CC(C)C)C(=O)N[C@H](CC(C)C)C(=O)N[C@H](Cc1ccccc1)C(=O)N[C@H](CCCNC(=N)N)C(=O)N[C@H](CCCCN)C(=O)N[C@H](CCCNC(=N)N)C(=O)O [Chain308D] (H-[dR][dL][dK][dW][dF][dL][dL][dF][dR][dK][dR]-OH)	2
CC(C)C[C@@H](NC(=O)[C@@H](CCCCN)NC(=O)[C@@H](CCCCN)NC(=O)[C@@H](Cc1ccccc1)NC(=O)[C@@H](CC(C)C)NC(=O)[C@@H](Cc1c[nH]c2ccccc12)NC(=O)[C@@H](CCCNC(=N)N)NC(=O)[C@@H](Cc1c[nH]c2ccccc12)NC(=O)[C@@H](CCCCN)NC(=O)[C@@H](CCCNC(=N)N)NC(=O)[C@H](N)CCCCN)C(=O)O [Chain310D] (H-[dK][dR][dK][dW][dR][dW][dL][dF][dK][dK][dL]-OH)	64

###

Reported Minimum inhibitory concentration values for a set of compounds
tested on: C. glabrata clinical strains; assay: MIC, clinical yeast strains; assay type: cell-based, Candida glabrata; set-up: unit: µg/ml; details: C. glabrata clinical yeast strain 4
Square brackets hold non-standard residues; d marks the D form. Peptide text beside a SMILES is read from it.
readout: Minimum inhibitory concentration

compound	data-value
CC[C@@H](C)[C@@H](N)C(=O)N[C@H](Cc1c[nH]c2ccccc12)C(=O)N[C@H](CCCCN)C(=O)N[C@H](CCCNC(=N)N)C(=O)N[C@H](Cc1ccccc1)C(=O)N[C@H](CCCNC(=N)N)C(=O)N[C@H](CC(C)C)C(=O)N[C@H](Cc1ccccc1)C(=O)N[C@H](CCCCN)C(=O)N[C@H](CCCCN)C(=O)N[C@H](Cc1c[nH]c2ccccc12)C(=O)O [Chain304D] (H-[dI][dW][dK][dR][dF][dR][dL][dF][dK][dK][dW]-OH)	64
CC(C)C[C@@H](NC(=O)[C@H](N)CCCNC(=N)N)C(=O)N[C@H](CCCCN)C(=O)N[C@H](Cc1c[nH]c2ccccc12)C(=O)N[C@H](Cc1ccccc1)C(=O)N[C@H](CC(C)C)C(=O)N[C@H](CC(C)C)C(=O)N[C@H](Cc1ccccc1)C(=O)N[C@H](CCCNC(=N)N)C(=O)N[C@H](CCCCN)C(=O)N[C@H](CCCNC(=N)N)C(=O)O [Chain308D] (H-[dR][dL][dK][dW][dF][dL][dL][dF][dR][dK][dR]-OH)	16
CC(C)C[C@@H](NC(=O)[C@H](N)CCCNC(=N)N)C(=O)N[C@H](CCCCN)C(=O)N[C@H](CCCNC(=N)N)C(=O)N[C@H](Cc1c[nH]c2ccccc12)C(=O)N[C@H](CCCNC(=N)N)C(=O)N[C@H](CC(C)C)C(=O)N[C@H](Cc1ccccc1)C(=O)N[C@H](CCCNC(=N)N)C(=O)N[C@H](CCCCN)C(=O)N[C@H](CCCNC(=N)N)C(=O)O [Chain306D] (H-[dR][dL][dK][dR][dW][dR][dL][dF][dR][dK][dR]-OH)	32
